- Tested on: A549 NSCLC
- test-name: NCI tumour cell line growth inhibition, 48 h; in the data active = GI50 below about 0.43 µM; inactive = the rest
Returns: one label drawn from active, inactive

>>> class_assignment("FC(F)(F)c1cccc(Nc2nc3ccccc3nc2Nc2cccc(C(F)(F)F)c2)c1")
"active"
>>> class_assignment("FC(F)(F)c1ccc(-c2cncn2-c2ccccc2)cc1")
"inactive"
>>> class_assignment("Cc1ccc(-c2cc(C(=O)N3N=C(c4ccc(N)cc4)CC3c3ccc(Cl)cc3)c3ccccc3n2)cc1 (stereo not given)")
"inactive"
>>> class_assignment("CC(C)[C@]12O[C@H]1[C@@H]1O[C@]13[C@]1(O[C@H]1C[C@H]1C4=C(CC[C@@]13C)C(=O)OC4)[C@@H]2OC(=O)CN(C)C")
"active"

Assay outcome for Clc1ccc(/C=C2\CCCC3C2=Nc2ccccc2NC3c2ccc(Cl)cc2)cc1 (stereo not given) : what was it?
inactive

====

- System: NCI/ADR-RES ovarian
- test-name: NCI tumour cell line growth inhibition, 48 h; in the data active = GI50 below about 0.43 µM; inactive = the rest
Returns: one label drawn from yes (1) = active, no (0) = inactive

Solved entries (count: 4):
>>> class_assignment("COC(=O)C1=C(O)[C@H](C(=O)OC)C2(O)[C@@H](C(=O)OC)[C@H]1C[C@@H](c1ccc(OC(=O)n3ccnc3)cc1)[C@@H]2C(=O)OC")
"no (0)"
>>> class_assignment("CC(=O)OC[C@]1(C)C=C2C(=O)[C@](C)(O)C3(CC3)C(C)=C2[C@H]1OC(=O)N(C)CCN(C)C(=O)OC(C)(C)C")
"no (0)"
>>> class_assignment("Cc1nc2cc(-n3c(-c4ccc(F)cc4)nc4ccccc4c3=O)ccc2n1Cc1ccccc1")
"no (0)"
>>> class_assignment("CC(=O)c1cc2c(c(O)c1C)C(=O)C(=O)c1c(O)cccc1-2")
"yes (1)"

Assay outcome for `O[N+]1=CC=CCC1=S.On1ccccc1=S.[Zn]` : what was it?
no (0)

Assay outcome for Nc1nc(N)c2cc(CNc3ccc(C(=O)NC(CC(=O)O)C(=O)O)cc3)ccc2n1 (stereo not drawn) : what was it?
yes (1)

Assay outcome for `COc1ccc(S(=O)(=O)Nc2cc(/C=C\c3cc(OC)c(OC)c(OC)c3)cc(OC)c2OC)cc1` : what was it?
yes (1)

Assay outcome for CCN(CC)CCOc1ccc(/C=C2\CC3C4CC=C5C[C@@H](N6CCCC6)CC[C@]5(C)C4CC[C@]3(C)[C@H]2OC(C)=O)cc1OC (stereo partly drawn) : what was it?
no (0)

====

- Test system: LXFL 529 NSCLC
- test-name: NCI tumour cell line growth inhibition, 48 h
Reported TGI values for the following compounds.

>>> result("Nc1nc2c(nc(N)n2Cc2ccccc2)c(=O)[nH]1")
"> 100 µM"
>>> result("COc1cccc(C2C(C(=O)O)=C(CO)Oc3cc4c(cc32)OCO4)c1OC (stereo unspecified)")
"> 100 µM"
>>> result("CC(=O)c1c(P(=O)(OC(C)C)OC(C)C)nn(-c2ccc([N+](=O)[O-])cc2)c1C")
"> 100 µM"
>>> result("C/C(O)=C/c1nc2ccccc2[nH]1")
"> 100 µM"
>>> result("O=C(CCN1CCCC1)CC(c1ccccc1)c1c(O)c2ccccc2oc1=O (stereo unspecified)")
"> 100 µM"

Hello, I am looking for reported TGI with LXFL 529 NSCLC for `CC1=C(C(=O)CC(=O)C(=O)Nc2ccccc2C(F)(F)F)Sc2ccccc2N1` . Could you help?
> 100 µM

Hello, I am looking for reported TGI with LXFL 529 NSCLC for `Cc1ccc(O)c(N=Nc2ccc(S(=O)(=O)O)cc2)n1` . Could you help?
> 100 µM
